# measured on: E. coli CFT073 full-length donor strand complemented PapG-II, PapGDSF variant N96S N242S N286S K172A, SEQ ID NO: 26 (Escherichia coli, UniProt A0A0H2VAQ6, K192A/N116S/N262S/N306S)
# Construct: mouse IgGK signal peptide, C-terminal 8xHis, ExpiCHO, purified
# Sequence (A0A0H2VAQ6 with tags, fused parts or gaps N116S/K192A/N262S/N306S): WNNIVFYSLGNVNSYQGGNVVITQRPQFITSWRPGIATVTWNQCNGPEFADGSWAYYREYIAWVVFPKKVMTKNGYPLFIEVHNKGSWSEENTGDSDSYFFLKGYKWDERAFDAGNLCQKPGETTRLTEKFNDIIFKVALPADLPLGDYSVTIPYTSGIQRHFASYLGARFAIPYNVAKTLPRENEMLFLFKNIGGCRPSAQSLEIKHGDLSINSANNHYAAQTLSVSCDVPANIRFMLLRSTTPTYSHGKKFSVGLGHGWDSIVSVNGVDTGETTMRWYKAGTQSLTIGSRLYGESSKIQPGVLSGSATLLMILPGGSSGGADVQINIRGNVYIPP
# assay protocol: PapG Luminex ligand binding at equilibrium
# measurement parameters: GbO4 beads, HEPES pH 7.4, 4° C. overnight, read-out: Kd (GbO4)
pKd: −log10 of the molar value.
measured property: pKd

Supply pKd value. Item: GalNAc-Gal-Gal-Glc-ceramide [GbO4] < 6.52

====

# measured on: E. coli CFT073 PapG-II lectin domain PapGLD variant N96S G86A, SEQ ID NO: 14 (Escherichia coli, UniProt A0A0H2VAQ6, G106A/N116S)
# Sequence (A0A0H2VAQ6 with tags, fused parts or gaps G106A/N116S): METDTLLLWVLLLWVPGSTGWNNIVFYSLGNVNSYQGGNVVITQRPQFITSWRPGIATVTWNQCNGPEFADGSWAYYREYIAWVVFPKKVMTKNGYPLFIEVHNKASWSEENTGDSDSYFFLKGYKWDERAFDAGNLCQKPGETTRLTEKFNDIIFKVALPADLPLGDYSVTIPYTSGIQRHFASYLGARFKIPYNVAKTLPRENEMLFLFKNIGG
# assay protocol: PapG Luminex ligand binding at equilibrium
# measurement parameters: GbO4 beads, HEPES pH 7.4, 4° C. overnight, read-out: Kd (GbO4)
measured property: Kd (nM)
Note: unit nM is implicit; provide only the numeric part.

Supply Kd value. Item: GalNAc-Gal-Gal-Glc-ceramide [GbO4] 15

====

# measured on: E. coli CFT073 PapG-II lectin domain PapGLD N96S WT v2 (Escherichia coli, UniProt A0A0H2VDP3, N116S)
# Sequence (A0A0H2VDP3 21-216 N116S): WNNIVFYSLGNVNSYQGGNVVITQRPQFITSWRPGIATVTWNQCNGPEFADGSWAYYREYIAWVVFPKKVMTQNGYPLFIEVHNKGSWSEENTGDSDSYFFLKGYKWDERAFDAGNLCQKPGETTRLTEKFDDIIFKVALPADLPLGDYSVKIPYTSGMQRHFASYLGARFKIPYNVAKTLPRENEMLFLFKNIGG
# assay protocol: PapG Luminex ligand binding at equilibrium
# measurement parameters: GbO4 beads, HEPES pH 7.4, 4° C. overnight, read-out: Kd (GbO4)
measured property: Kd (nM)
Note: unit nM is implicit; provide only the numeric part.

Supply Kd value. Item: GalNAc-Gal-Gal-Glc-ceramide [GbO4] 29

====

# measured on: E. coli CFT073 PapG-II lectin domain PapGLD variant N96S G18A, SEQ ID NO: 18 (Escherichia coli, UniProt A0A0H2VAQ6, G38A/N116S)
# assay protocol: PapG Luminex ligand binding at equilibrium
# measurement parameters: GbO4 beads, HEPES pH 7.4, 4° C. overnight, read-out: Kd (GbO4)
measured property: Kd

Supply Kd value. Item: GalNAc-Gal-Gal-Glc-ceramide [GbO4] > 0.01 µM
